- ASSAY_COMMENT: chemical genetic growth profiling, strain panel (AID 1159580);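 also: tested at 20 µM; growth read once vehicle control cultures reached saturation at 30 °C; 1 = growth at the plate median or of vehicle wells; lower values mean less growth of the strain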
- RECORDED_CONDITIONS: S. cerevisiae deletion strains, growth OD, locus YGL240W, strain doc1, hits give low values
Among all 5,500 compounds or so, about 2,000 (36%) were called active. Another 18% or so got no clear call; they are omitted. This is one part of the list. Where a SMILES comes first, the peptide text is derived from it. Bridges are numbered along the chain shown (N, C = ends). Side-chain parts run from the residue outwards. [ ]: non-standard residue; d: D form. The star is where a group is joined. Octanoyl(6-Me) = CCC(C)CCCCC(=O)*; X1 = CCC(C)C(N)C1=NC(C(=O)*)CS1; Orn = NCCC[CH](N)C(=O)O; Dab = NCC[CH](N)C(=O)O
QUANTITY_NAME: normalized growth
Just the number, please, no unit attached.

Check out these entries, answers already filled in.
COMPOUND | NUMERIC_RESULT
CC(NCCC(c1ccccc1)c1ccccc1)c1ccccc1 (configuration not stated) | 1.05
COc1cc(O)cc(OC)c1OC | 0.945
Cc1c(NC(=O)c2cccnc2)c(=O)n(-c2ccccc2)n1C | 1.01
COc1cc2cc3c4cc(OC)c(OC)cc4cc[n+]3c(C)c2cc1OC | 0.999
COc1c2ccoc2cc2oc(C)cc(=O)c12 | 1.01
CCC(C)CCCCC(=O)NC(CCN)C(=O)NC(C(=O)NC(CCN)C(=O)NC1CCNC(=O)C(C(C)O)NC(=O)C(CCN)NC(=O)C(CCN)NC(=O)C(CC(C)C)NC(=O)C(Cc2ccccc2)NC(=O)C(CCN)NC1=O)C(C)O (configuration not stated) ({Octanoyl(6-Me)}-[Dab]T[Dab][Dab][Dab]FL[Dab][Dab]T; lactam 4-C; configuration not given here) | 0.986
CC1=CC2C(C(C)C)CCC(C)(O)C2CC1 (configuration not stated) | 0.959
COc1c2occc2c(OC)c2c(=O)cc(C)oc12 | 0.955
CC(=O)[C@@]1(O)CCC2C3CCC4=CC(=O)CC[C@]4(C)C3CC[C@@]21C (some centres not stated) | 0.989
O=C(O)[C@H](O)[C@@](O)(Cc1ccc(O)cc1)C(=O)O | 1.01

Exercise: Return reported normalized growth; argument: CCC(C)C(N)C1=NC(C(=O)NC(CC(C)C)C(=O)NC(CCC(=O)O)C(=O)NC(C(=O)NCCCCC2NC(=O)C(CC(N)=O)NC(=O)C(CC(=O)O)NC(=O)C(Cc3cnc[nH]3)NC(=O)C(Cc3ccccc3)NC(=O)C(C(C)CC)NC(=O)C(CCCN)NC2=O)C(C)CC)CS1 (stereo not drawn) (cyclo(DNK([Ile-Glu-Leu-X1])[Orn]IFH); configuration not given here)
Key: 1.03

Exercise: Now consider `CCOC([O-])=Nc1c[n+](N2CCOCC2)no1` .
Key: 1.01

Exercise: Try `O=C(NC1CCCCC1)NC1CCCCC1` next.
Key: 0.986

Exercise: Next entry: CN1C(=O)CCS(=O)(=O)C1c1ccc(Cl)cc1 (configuration not stated)
Key: 0.963

Exercise: Please give the result for CC(C)CC1NC(=O)C(CCCN)NC(=O)C(C(C)C)NC(=O)C2CCCN2C(=O)C(Cc2ccccc2)NC(=O)C(CC(C)C)NC(=O)C(CCCN)NC(=O)C(C(C)C)NC(=O)C2CCCN2C(=O)C(Cc2ccccc2)NC1=O (configuration not stated) (cyclo(FPV[Orn]LFPV[Orn]L); configuration not given here) too.
Key: 0.992

Exercise: How about this compound: `O=C(O)c1cc(=O)c2cccc(O)c2[nH]1`
Key: 0.999

Exercise: Now try `O=C(O)c1cc(=O)c2c(Cl)cc(Cl)cc2[nH]1` .
Key: 1.02
